Let's look at some compounds and their measured fraction unbound.
testName: protein binding
Assay type: ADME
conditions: read-out: PB (converted)
Answer with the value's number alone.

The cases that follow already have their fraction unbound on record.
| molecule | fraction unbound |
| --- | --- |
| COc1cc2c(Nc3cc(CC(=O)Nc4cccc(F)c4F)[nH]n3)ncnc2cc1OCCCN1CCC[C@@H]1CO | 0.15 |
| COc1cc2c(Nc3cc(CC(=O)Nc4cccc(F)c4)[nH]n3)ncnc2cc1OCCCN1CCC[C@@H]1CO | 0.05 |
| COc1cc2c(Nc3ncc(CC(=O)Nc4cccc(F)c4)s3)ncnc2cc1OCCCN1CCC(CO)CC1 | 0.02 |
| CCN(CCO)CCCOc1cc2ncnc(Nc3cc(CC(=O)Nc4cccc(F)c4F)[nH]n3)c2cc1OC | 0.17 |

Record request: fraction unbound value, item CCN(CCO)CCCOc1cc2ncnc(Nc3cc(CC(=O)Nc4cccc(F)c4)[nH]n3)c2cc1OC
0.05

====

testName: in vivo
conditions: rat
quantityKind: clearance (mL/min/kg)
// units = mL/min/kg; emit number, no label

| molecule | scaleUnit | clearance |
| --- | --- | --- |
| COc1cc2c(Nc3cc(CC(=O)Nc4cccc(F)c4F)[nH]n3)ncnc2cc1OCCCN1CCC[C@@H]1CO | mL/min/kg | 63 |

Alright, here's another compound for you.
Record request: clearance value, item O=C(Cc1cc(Nc2ncnc3cc(OCCCN4CCC[C@@H]4CO)ccc23)n[nH]1)Nc1cccc(F)c1F
15

====

targetSystem: SW-620
quantityKind: pKi
For clarity, pKi is expressed as the negative log10 of concentration in mol/L.

The cases that follow already have their pKi on record.
| molecule | targetSystem | quantityKind | recordedResult |
| --- | --- | --- | --- |
| CCN(CCO)CCCOc1cc2ncnc(Nc3cc(CC(=O)Nc4cccc(F)c4)[nH]n3)c2cc1OC | SW-620 | pKi | 6.57 |
| CCCN(CCO)CCCOc1cc2ncnc(Nc3cc(CC(=O)Nc4cccc(F)c4)[nH]n3)c2cc1OC | SW-620 | pKi | 6.54 |
| COc1cc2c(Nc3cc(CC(=O)Nc4cccc(C(F)(F)F)c4)[nH]n3)ncnc2cc1OCCCN1CCC(CO)CC1 | SW-620 | pKi | 5.74 |
| COc1cc2c(Nc3cc(CC(=O)Nc4cccc(F)c4F)[nH]n3)ncnc2cc1OCCCN1CCC(O)CC1 | SW-620 | pKi | 7.11 |
| CCCN(CCO)CCCOc1ccc2c(Nc3cc(CC(=O)Nc4cccc(F)c4F)[nH]n3)ncnc2c1 | SW-620 | pKi | 8.70 |
| O=C(Cc1cc(Nc2ncnc3cc(OCCCN4CCC[C@@H]4CO)ccc23)n[nH]1)Nc1cccc(F)c1 | SW-620 | pKi | 7.62 |

Return pKi measured with SW-620 given this compound: COc1cccc(NC(=O)Cc2cc(Nc3ncnc4cc(OCCCN5CCC(CO)CC5)c(OC)cc34)[nH]n2)c1
5.26

Return pKi measured with SW-620 given this compound: COc1cc2c(Nc3cc(CC(=O)Nc4cccc(F)c4)[nH]n3)ncnc2cc1OCCCNCCO
6.20

Return pKi measured with SW-620 given this compound: COc1cc2c(Nc3cc(CC(=O)Nc4cc(F)cc(F)c4)[nH]n3)ncnc2cc1OCCCN1CCC(CO)CC1
6.43

Return pKi measured with SW-620 given this compound: CCCN(CCO)CCCOc1ccc2c(Nc3cc(CC(=O)Nc4cccc(F)c4)[nH]n3)ncnc2c1
8.15

Return pKi measured with SW-620 given this compound: COc1cc2c(Nc3cc(CC(=O)Nc4cccc(F)c4)[nH]n3)ncnc2cc1OCCCN1CCC[C@@H]1CO
6.48

Return pKi measured with SW-620 given this compound: CCN(CCO)CCCOc1ccc2c(Nc3cc(CC(=O)Nc4cccc(F)c4F)[nH]n3)ncnc2c1
8.15

Return pKi measured with SW-620 given this compound: COc1cc2c(Nc3cc(CC(=O)Nc4cccc(Cl)c4)[nH]n3)ncnc2cc1OCCCN1CCC(CO)CC1
5.92

Return pKi measured with SW-620 given this compound: COc1cc2c(Nc3ncc(CC(=O)Nc4cccc(F)c4)s3)ncnc2cc1OCCCN1CCC(CO)CC1
8.30

Provenance of the data: ChEMBL document CHEMBL1147984
